# Target of assay: T1, IL-11R on STAT3 Reporter (Luciferase)-HEK293 cells (UniProt Q14626 23-422)
# T1 sequence (looked up): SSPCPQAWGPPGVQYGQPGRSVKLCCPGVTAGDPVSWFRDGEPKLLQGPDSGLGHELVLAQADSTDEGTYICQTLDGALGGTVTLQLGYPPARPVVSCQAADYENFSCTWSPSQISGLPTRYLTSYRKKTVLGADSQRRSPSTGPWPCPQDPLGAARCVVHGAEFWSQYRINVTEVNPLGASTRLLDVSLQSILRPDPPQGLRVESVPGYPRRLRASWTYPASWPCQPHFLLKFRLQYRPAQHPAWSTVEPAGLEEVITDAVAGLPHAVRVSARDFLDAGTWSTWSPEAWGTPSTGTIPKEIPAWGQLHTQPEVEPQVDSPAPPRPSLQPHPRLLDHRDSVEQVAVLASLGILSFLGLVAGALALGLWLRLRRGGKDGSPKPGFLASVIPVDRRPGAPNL
# Assay summary: cell-based or functional assay
Measure name: IC50, STAT3 luciferase reporter assay (HEK293), inhibiting IL-11, Assay 1
The answer should read as a number with its unit following.

Record summary for mAb6 (antibody, V domains shown, Expressed as human IgG4 (S228P EU)) VH: EVQLLESGGGLVQPGGSLRLSCAASGFTFSWYSMTWVRQAPGKGLEWVSSIVPYGDLTQYADSVKGRFTISRDNSKNTLYLQMNSLRAEDTAVYYCAKGPGWGSFDLWGRGTLVTVSS VL: DIQMTQSPSSLSASVGDRVTITCQASQDINNYLNWYQQKPGKAPKLLIYDASNLQTGVPSRFSGSGSGTDFTFTISSLQPEDIATYYCQQHEFQSPTFGPGTKVDIK : reported IC50, STAT3 luciferase reporter assay (HEK293), inhibiting IL-11, Assay 1 = 11 µg/mL
